Would you mind telling me the reported pIC50 of each entry?
# Measured target: Her2 exon 20 YVMA insertion (A775_G776ins YVMA) (Homo sapiens (Human), UniProt P04626, INS775YVMA)
# Sequence (P04626 other isoform, or with tags, fused parts or gaps ins YVMA behind 775): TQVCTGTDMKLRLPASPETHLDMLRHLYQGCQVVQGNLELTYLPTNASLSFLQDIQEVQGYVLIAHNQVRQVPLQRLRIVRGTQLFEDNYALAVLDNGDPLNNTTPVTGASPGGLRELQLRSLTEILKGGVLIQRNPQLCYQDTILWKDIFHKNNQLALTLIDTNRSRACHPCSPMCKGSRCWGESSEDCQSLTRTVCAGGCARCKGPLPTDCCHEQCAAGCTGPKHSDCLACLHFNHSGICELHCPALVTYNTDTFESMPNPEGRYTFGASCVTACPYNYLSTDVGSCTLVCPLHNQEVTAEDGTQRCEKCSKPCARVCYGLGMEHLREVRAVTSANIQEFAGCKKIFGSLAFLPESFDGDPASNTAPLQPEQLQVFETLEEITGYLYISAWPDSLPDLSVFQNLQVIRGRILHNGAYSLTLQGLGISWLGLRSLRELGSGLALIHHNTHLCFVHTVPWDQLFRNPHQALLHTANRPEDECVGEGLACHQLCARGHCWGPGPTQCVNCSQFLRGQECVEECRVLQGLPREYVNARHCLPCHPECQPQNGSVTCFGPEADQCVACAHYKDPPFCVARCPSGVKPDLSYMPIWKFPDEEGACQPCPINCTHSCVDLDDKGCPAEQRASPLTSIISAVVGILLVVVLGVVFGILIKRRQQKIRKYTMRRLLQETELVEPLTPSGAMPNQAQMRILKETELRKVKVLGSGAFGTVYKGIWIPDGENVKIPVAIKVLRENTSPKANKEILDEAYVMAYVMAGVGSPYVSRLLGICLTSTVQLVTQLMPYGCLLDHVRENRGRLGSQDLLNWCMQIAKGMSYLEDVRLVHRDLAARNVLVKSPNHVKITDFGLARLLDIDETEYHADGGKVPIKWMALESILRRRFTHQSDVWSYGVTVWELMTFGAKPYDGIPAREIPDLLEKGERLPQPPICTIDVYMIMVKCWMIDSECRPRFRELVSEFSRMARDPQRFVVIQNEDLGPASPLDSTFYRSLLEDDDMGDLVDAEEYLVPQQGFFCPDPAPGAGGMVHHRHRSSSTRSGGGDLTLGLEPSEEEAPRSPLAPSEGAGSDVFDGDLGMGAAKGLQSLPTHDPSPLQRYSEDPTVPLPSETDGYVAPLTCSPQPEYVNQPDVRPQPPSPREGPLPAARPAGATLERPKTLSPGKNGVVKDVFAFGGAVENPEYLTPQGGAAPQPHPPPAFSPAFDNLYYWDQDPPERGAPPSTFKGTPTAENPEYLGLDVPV
# Test protocol: Ba/F3-Her2 Exon20 YVMA cell anti-proliferative assay (CellTiter 96 MTS, 72 h)
# Condition set: Ba/F3-Her2 Exon20 YVMA cells
pIC50: −log10 of the molar value.

Previously resolved entries follow.
So what's the measured pIC50 for this one? C=CC(=O)Nc1cc(Nc2ncc(C(=O)OC(C)C)c(-c3c[nH]c4ccccc34)n2)c(OC)cc1N(C)C[C@H]1CCCN1C [Example 64]
> 7.00

Okay, and C=CC(=O)Nc1cc(Nc2nccc(-c3c(C(=O)NC)n(C)c4ccccc34)n2)c(OC)cc1N(C)CCN(C)C [Example 91] ?
6.00 to 6.30

Okay, and C=CC(=O)Nc1cc(Nc2ncc(Cl)c(-c3cn(C)c4ccccc34)n2)c(OC)cc1O[C@@H](COCC)CN(C)C [Example 44] ?
6.00 to 6.30

Okay, and C=CC(=O)Nc1cc(Nc2ncc(C(=O)OC(C)CC)c(-c3cn(C)c4ccccc34)n2)c(OC)cc1N(C)CCN(C)C (stereo not shown) [Example 29] ?
> 7.00

Okay, and C=CC(=O)Nc1cc(Nc2nccc(-c3cn(C)c4cc(C#N)ccc34)n2)c(OC)cc1N(C)CCN(C)C [Example 89] ?
6.30 to 7.00

Okay, and C=CC(=O)Nc1cc(Nc2ncc(C(=O)OC(C)C)c(-c3cn(C)c4ccccc34)n2)c(OC)cc1OCCN(C)C [Example 67] ?
> 7.00

Alright, here's another molecule for you.
So what's the measured pIC50 for this one? C=CC(=O)Nc1ccc(OC)c(Nc2ncc(Cl)c(-c3cn(C)c4cc(OCCN5CCN(C)CC5)ccc34)n2)c1 [Example 18]
< 6.00
